B1: library; a variant is named by its letters at N, in order (parent)
chain: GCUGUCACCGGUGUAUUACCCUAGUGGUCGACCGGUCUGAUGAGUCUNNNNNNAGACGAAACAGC

- Variants of: B1
- Procedure text: normalized RNA/DNA level with ligand (relative to sTRSVctl = 100) (log10 (% of sTRSVctl)); ligand: hypoxanthine (xanthine aptamer); higher = less ribozyme self-cleavage, higher mRNA level
- Condition summary: ligand concentration (+) RNA-Seq: 5 mM, HEK293T, reporter: mCherry (pCS4076), ligand present: yes
Measured normalized RNA/DNA level with ligand (log10) of individual entries
Number, no unit, nothing else.

Illustrative cases are given below, each with its answer.
{"Sequence change": "GCUAGU", "Assay result": 1.92}
{"Sequence change": "CGACUU", "Assay result": 2}
{"Sequence change": "CCUGGG", "Assay result": 1.94}
{"Sequence change": "CUCUUU", "Assay result": 2}
{"Sequence change": "UAAUGU", "Assay result": 1.89}
{"Sequence change": "UUAGGG", "Assay result": 1.87}
{"Sequence change": "GCCUUG", "Assay result": 1.93}
{"Sequence change": "GCCCAA", "Assay result": 1.94}

Next up:
q: Quickly give me recorded normalized RNA/DNA level with ligand (log10) for CGGUUC
a: 1.96
